Task for the reader: assign each of the following compounds its reported inhibition at 3 µM.
# target: human PF4 (Homo sapiens)
# Construct: PF4 is a 70 amino acid, lysine-rich 7.8 kDa platelet-specific protein; made in house; host or cells: Escherichia coli BL21DE3 pLysS (pT7-7) and/or Drosophila S2 cells
# Sequence (P02776 32-101): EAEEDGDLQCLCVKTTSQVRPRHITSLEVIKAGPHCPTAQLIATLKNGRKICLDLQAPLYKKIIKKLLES
# measurement-description: Inhibition of PF4 tetramer formation (BS3 cross-linking, SDS-PAGE)
# Assay type: biochemical
# condition: 3 μM inhibitor (column A); read-out: % inhibition of PF4 tetramer formation at single concentration of inhibitor
Report the figure in % without appending any unit label.

q: So what does the record say about inhibition at 3 µM for COCCOCCNC(=O)C1C(=O)c2ccc(C#Cc3ccc4c(c3)C(=O)C(C(=O)NCCOCCOC)C4=O)cc2C1=O (stereo not shown) ?
a: 19

q: Dear colleague, I am looking for the recorded inhibition at 3 µM of the following compound: CC(C)[C@@H](N)C(=O)C1C(=O)c2ccc(Oc3ccc4c(c3)C(=O)C(C(=O)[C@H](N)C(C)C)C4=O)cc2C1=O (stereo partly shown)
a: 21

q: Item under review: CC(=O)OC[C@H]1O[C@@H](OC(C)=O)[C@H](NC(=O)C2C(=O)c3ccc(Oc4ccc5c(c4)C(=O)C(C(=O)N[C@H]4[C@H](OC(C)=O)O[C@H](COC(C)=O)[C@@H](OC(C)=O)[C@@H]4OC(C)=O)C5=O)cc3C2=O)[C@@H](OC(C)=O)[C@@H]1OC(C)=O (stereo partly shown) . Reported inhibition at 3 µM?
a: 28

q: Quick one: inhibition at 3 µM of CC(C)(C)OC(=O)N1CC[C@H](C(=O)C2C(=O)c3ccc(S(=O)(=O)c4ccc5c(c4)C(=O)C(C(=O)[C@H]4CCN(C(=O)OC(C)(C)C)C4)C5=O)cc3C2=O)C1 (stereo partly shown) ?
a: 49

q: Need inhibition at 3 µM, item O=C(c1ccc2c(c1)C(=O)C(C(=O)CSc1ccncc1)C2=O)c1ccc2c(c1)C(=O)C(C(=O)CSc1ccncc1)C2=O (stereo not shown)
a: 52

q: Could you share which inhibition at 3 µM value was measured for O=C(c1ccc2c(c1)C(=O)C(C(=O)C1CC1)C2=O)c1ccc2c(c1)C(=O)C(C(=O)C1CC1)C2=O (stereo not shown) ?
a: 23

q: // query inhibition at 3 µM value for entry CCCC(=O)C1C(=O)c2ccc(Oc3ccc4c(c3)C(=O)C(C(=O)CCC)C4=O)cc2C1=O (stereo not shown)
a: 23

q: // inhibition at 3 µM lookup, key: O=C(Cc1cccc(F)c1F)C1C(=O)c2ccc(Oc3ccc4c(c3)C(=O)C(C(=O)Cc3cccc(F)c3F)C4=O)cc2C1=O (stereo not shown)
a: 46

q: Return reported inhibition at 3 µM; argument: CC(C)(C)OC(=O)NCCC(=O)C1C(=O)c2ccc(C(=O)c3ccc4c(c3)C(=O)C(C(=O)CCNC(=O)OC(C)(C)C)C4=O)cc2C1=O (stereo not shown)
a: 25

q: Return reported inhibition at 3 µM; argument: CCOCC(=O)C1C(=O)c2ccc(C(=O)c3ccc4c(c3)C(=O)C(C(=O)COCC)C4=O)cc2C1=O (stereo not shown)
a: 53

q: Using the record for O=C1c2ccc(S(=O)(=O)c3ccc4c(c3)C(=O)C(C(=O)C3CCCS3(=O)=O)C4=O)cc2C(=O)C1C(=O)C1CCCS1(=O)=O (stereo not shown) , report its inhibition at 3 µM.
a: 30

q: I'd like to know its inhibition at 3 µM. The compound in question is CC(C)(C)OCC(=O)C1C(=O)c2ccc(S(=O)(=O)c3ccc4c(c3)C(=O)C(C(=O)COC(C)(C)C)C4=O)cc2C1=O (stereo not shown)
a: 65

q: Can you look up the measured inhibition at 3 µM of CCC(=O)C1C(=O)c2ccc(Oc3ccc4c(c3)C(=O)C(C(=O)CC)C4=O)cc2C1=O (stereo not shown) for me?
a: 18

q: Need inhibition at 3 µM, item COCCOCCNC(=O)C1C(=O)c2ccc(Oc3ccc4c(c3)C(=O)C(C(=O)NCCOCCOC)C4=O)cc2C1=O (stereo not shown)
a: 100

q: // returns reported inhibition at 3 µM for input COCCOCC(=O)C1C(=O)c2ccc(Oc3ccc4c(c3)C(=O)C(C(=O)COCCOC)C4=O)cc2C1=O (stereo not shown)
a: 17

q: Look at this compound and give its reported inhibition at 3 µM. CC(=O)NCCCC(=O)C1C(=O)c2ccc(Oc3ccc4c(c3)C(=O)C(C(=O)CCCNC(C)=O)C4=O)cc2C1=O (stereo not shown)
a: 34

q: Could you tell me which inhibition at 3 µM is on file for O=C(NCC1CCS(=O)(=O)C1)C1C(=O)c2ccc(S(=O)(=O)c3ccc4c(c3)C(=O)C(C(=O)NCC3CCS(=O)(=O)C3)C4=O)cc2C1=O (stereo not shown) ?
a: 46

q: Which inhibition at 3 µM is listed for CC(C)C[C@@H](N)C(=O)C1C(=O)c2ccc(S(=O)(=O)c3ccc4c(c3)C(=O)C(C(=O)[C@H](N)CC(C)C)C4=O)cc2C1=O (stereo partly shown) ?
a: 61

q: Quick check: inhibition at 3 µM of CSCC[C@H](NC(=O)OC(C)(C)C)C(=O)C1C(=O)c2ccc(Oc3ccc4c(c3)C(=O)C(C(=O)[C@H](CCSC)NC(=O)OC(C)(C)C)C4=O)cc2C1=O (stereo partly shown) ?
a: 24

q: So what's the measured inhibition at 3 µM for this one? O=C(NC1CCC1)C1C(=O)c2ccc(S(=O)(=O)c3ccc4c(c3)C(=O)C(C(=O)NC3CCC3)C4=O)cc2C1=O (stereo not shown)
a: 100

q: Entry COCCOCC(=O)C1C(=O)c2ccc(C(=O)c3ccc4c(c3)C(=O)C(C(=O)COCCOC)C4=O)cc2C1=O (stereo not shown) : reported inhibition at 3 µM = ?
a: 13

q: Which inhibition at 3 µM value is on record for O=C(c1ccc2c(c1)C(=O)C(C(=O)[C@@H]1CCNC1)C2=O)c1ccc2c(c1)C(=O)C(C(=O)[C@H]1CCCN1)C2=O (stereo partly shown) ?
a: 27

q: Need inhibition at 3 µM, item O=C(c1ccc2c(c1)C(=O)C(C(=O)Cc1cccnc1)C2=O)c1ccc2c(c1)C(=O)C(C(=O)Cc1cccnc1)C2=O (stereo not shown)
a: 100

q: Give its inhibition at 3 µM value. Item: O=C(c1ccnc(-c2ccccc2)c1)C1C(=O)c2ccc(S(=O)(=O)c3ccc4c(c3)C(=O)C(C(=O)c3ccnc(-c5ccccc5)c3)C4=O)cc2C1=O (stereo not shown)
a: 29

q: What does the data say about its inhibition at 3 µM? Entry: CC(=O)C1C(=O)c2cc(S(=O)(=O)c3cnc4c(c3)C(=O)C(C(C)=O)C4=O)cnc2C1=O (stereo not shown)
a: 30
